These data points were gathered from paper PMC5399635.

assay-text: in vitro
test-context: human, Caco-2, pH 7.4, with cyclosporin A, Papp B→A, Cyclosporin A
Where a name gives a salt, the structure may show the parent alone.
assay-readout: Papp B→A at 2 h, 10 μM (×10⁻⁶ cm/s)

[[record]]
compound = "C=CCN1CC[C@]23c4c5ccc(O)c4O[C@H]2C(=O)CC[C@@]3(O)[C@H]1C5 [Naloxone, naloxone hydrochloride, reference compound]"
assay_readout = "Papp B→A at 2 h, 10 μM"
reading = 23.7


----------
assay-text: in vitro
test-context: human, Caco-2, pH 7.4, with verapamil, 100 μM, Papp B→A, Verapamil
Where a name gives a salt, the structure may show the parent alone.
assay-readout: Papp B→A at 2 h, 10 μM (×10⁻⁶ cm/s)

[[record]]
molecule = "C=CCN1CC[C@]23c4c5ccc(O)c4O[C@H]2C(=O)CC[C@@]3(O)[C@H]1C5 [Naloxone, naloxone hydrochloride, reference compound]"
reading = 24.9


----------
assay-text: in vitro
test-context: human, Caco-2, pH 7.4, Papp B→A, Elacridar, 0.5 μM
assay-readout: Papp B→A at 2 h, 10 μM (nm/s)

[[record]]
chemical_smiles = "C=CCN1CC[C@]23c4c5ccc(O)c4O[C@H]2[C@@H](OCCOCCOCCOCCOCCOCCOCCOC)CC[C@@]3(O)[C@H]1C5"
units = "nm/s"
reading = 25


----------
assay-text: in vitro
test-context: human, Caco-2, pH 7.4, Papp A→B, no P-gp inhibitor, mean of 3 experiments
Counter-ions that a name gives are not always drawn.
// reported Papp A→B at 2 h, 10 μM for each item listed
assay-readout: Papp A→B at 2 h, 10 μM (×10⁻⁶ cm/s)

[[record]]
molecule = "C=CCN1CC[C@]23c4c5ccc(O)c4O[C@H]2[C@@H](OCCOCCOCCOCCOCCOCCOCCOC)CC[C@@]3(O)[C@H]1C5"
assay_readout = "Papp A→B at 2 h, 10 μM"
reading = 0.7

[[record]]
molecule = "C=CCN1CC[C@]23c4c5ccc(O)c4O[C@H]2C(=O)CC[C@@]3(O)[C@H]1C5 [Naloxone, naloxone hydrochloride, reference compound]"
assay_readout = "Papp A→B at 2 h, 10 μM"
reading = 27.3


----------
assay-text: in vitro
test-context: human, Caco-2, pH 7.4, Papp B→A, Cyclosporin A
assay-readout: Papp B→A at 2 h, 10 μM (nm/s)

[[record]]
chemical_smiles = "C=CCN1CC[C@]23c4c5ccc(O)c4O[C@H]2[C@@H](OCCOCCOCCOCCOCCOCCOCCOC)CC[C@@]3(O)[C@H]1C5"
assay_readout = "Papp B→A at 2 h, 10 μM"
reading = 18


----------
assay-text: in vitro
test-context: human, Caco-2, pH 7.4, with elacridar, 0.5 μM, Papp B→A, Elacridar
Where a name gives a salt, the structure may show the parent alone.
assay-readout: Papp B→A at 2 h, 10 μM (×10⁻⁶ cm/s)

[[record]]
molecule = "C=CCN1CC[C@]23c4c5ccc(O)c4O[C@H]2C(=O)CC[C@@]3(O)[C@H]1C5 [Naloxone, naloxone hydrochloride, reference compound]"
reading = 27.3


----------
assayed-target: human κ-opioid receptor (Homo sapiens, UniProt P41145)
Sequence (P41145 whole entry): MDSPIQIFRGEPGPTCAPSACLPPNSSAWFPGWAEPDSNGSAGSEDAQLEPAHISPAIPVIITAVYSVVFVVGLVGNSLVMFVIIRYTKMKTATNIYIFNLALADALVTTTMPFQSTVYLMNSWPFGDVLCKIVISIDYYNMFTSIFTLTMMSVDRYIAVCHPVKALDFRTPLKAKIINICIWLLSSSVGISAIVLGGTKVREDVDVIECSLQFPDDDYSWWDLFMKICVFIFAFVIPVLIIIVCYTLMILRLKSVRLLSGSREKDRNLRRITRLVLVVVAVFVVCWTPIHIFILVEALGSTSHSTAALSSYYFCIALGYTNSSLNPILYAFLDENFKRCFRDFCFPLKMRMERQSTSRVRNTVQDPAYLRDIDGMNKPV
assay-text: [35S]GTPγS functional assay, κ-opioid receptor (HEK-293 membranes)
test-context: read-out: EC50 (agonism)
assay-readout: EC50 (nM)

[[record]]
molecule = "C=CCN1CC[C@]23c4c5ccc(O)c4O[C@H]2[C@@H](OCCOCCOCCOCCOCCOCCOCCOC)CC[C@@]3(O)[C@H]1C5 [Naloxegol, naloxegol]"
units = "nM"
reading = 47

